# Tested target: Adrenergic receptor alpha-1 (Homo sapiens) (UniProt P35348+P25100+P35368)
# Measurement protocol: Compound was evaluated for alpha-1 adrenergic receptor activity in isolated rabbit aortic tissue, effective dose of norepinephrine (NE)
# Cond: Oryctolagus cuniculus; target entry is the homologue from another species
Each entry below lists one item and its recorded ED50 value.
Numeric answer only, unit nM assumed.

>>> value_observed("Oc1ccc2c(c1O)CCCC2C1=NCCN1 (configuration not stated)")
140
>>> value_observed("Oc1ccc2c(c1O)OCC[C@@H]2C1=NCCN1")
67
>>> value_observed("C[C@]1(C2=NCCN2)CCCc2c1ccc(O)c2O")
41
>>> value_observed("CCC1(CC)CC[C@H](C2=NCCN2)c2ccc(O)c(O)c21")
98
>>> value_observed("CC1(C)CC[C@H](C2=NCCN2)c2ccc(O)c(O)c21")
125

Entry "C[C@@H]1CCc2c(ccc(O)c2O)[C@H]1C1=NCCN1" , ED50 reported as 48

Entry "Oc1ccc2c(c1O)SCC[C@@H]2C1=NCCN1" , ED50 reported as 219

----------
# Tested target: Adrenergic receptor alpha-2 (Homo sapiens) (UniProt P08913+P18825+P18089)
# Measurement protocol: Compound was evaluated for alpha-2 adrenergic receptor activity in the phenoxybenzamine (PBZ) - pretreated dog saphenous vein, effective dose (CPD)
# Format: tissue-based
# Cond: Canis lupus familiaris, target entry is the homologue from another species
Measured metric: ED50

>>> value_observed("Oc1ccc2c(c1O)SCC[C@@H]2C1=NCCN1")
"19 nM"

Entry Oc1ccc2c(c1O)CCCC2C1=NCCN1 (stereo unspecified) , ED50 reported as 5 nM

----------
# Tested target: Adrenergic receptor alpha-2 (Homo sapiens) (UniProt P08913+P18825+P18089)
# Measurement protocol: Compound was evaluated for alpha-2 adrenergic receptor activity in the phenoxybenzamine (PBZ) - pretreated dog saphenous vein, effective dose of norepinephrine (NE)
# Type: tissue-based
# Cond: Canis lupus familiaris, target entry is the homologue from another species
Just a reminder that ties go to Criterion not met: only ED50 strictly below 600 nM counts as Criterion met.

Solved cases below.
>>> assigned_class("C[C@]1(C2=NCCN2)CCCc2c1ccc(O)c2O")
"Criterion not met"
>>> assigned_class("C[C@@H]1CCc2c(ccc(O)c2O)[C@H]1C1=NCCN1")
"Criterion met"
>>> assigned_class("Oc1ccc2c(c1O)CCCC2C1=NCCN1 (stereo not drawn)")
"Criterion not met"

[ask] Record "CC1(C)CC[C@H](C2=NCCN2)c2ccc(O)c(O)c21" : is its ED50 strictly below 600 nM?
[reply] Criterion not met

[ask] Record "Oc1ccc2c(c1O)SCC[C@@H]2C1=NCCN1" : is its ED50 strictly below 600 nM?
[reply] Criterion met

[ask] Record "Oc1ccc2c(c1O)OCC[C@@H]2C1=NCCN1" : is its ED50 strictly below 600 nM?
[reply] Criterion not met

[ask] Record "Oc1ccc2c(c1O)CC[C@@H](c1ccccc1)[C@@H]2C1=NCCN1" : is its ED50 strictly below 600 nM?
[reply] Criterion met

----------
# Tested target: Adrenergic receptor alpha-2 (Homo sapiens) (UniProt P08913+P18825+P18089)
# Measurement protocol: Compound was evaluated for alpha-2 adrenergic receptor activity in the phenoxybenzamine (PBZ) - pretreated dog saphenous vein, effective dose (CPD)
# Type: tissue-based
# Cond: Canis lupus familiaris, target entry is the homologue from another species
Measured metric: ED50

Worked examples follow.
>>> value_observed("C[C@@H]1CCc2c(ccc(O)c2O)[C@H]1C1=NCCN1")
"4.5 µM"
>>> value_observed("Oc1ccc2c(c1O)OCC[C@@H]2C1=NCCN1")
"0.035 µM"

Entry "C[C@]1(C2=NCCN2)CCCc2c1ccc(O)c2O" , ED50 reported as 6.1 µM
